# procedure text: Oral exposure and bioavailability in dog
# Format: in vivo
# conditions used: plasma, po, 30 mg/kg solution dose (sodium material dissolved in 10% HPβCD in purified water or PBS), read-out: Absolute oral bioavailability
# Experimental: With a meglumine salt suspension at 100 mg/kg, about 33% decrease in plasma exposure was observed compared to solid dispersion. […] The solid dispersion formulation has several technical challenges which can be avoided by using a 2-((1R,4R)-4-(4-(5-(benzo[d]oxazol-2-ylamino)pyridin-2-yl)phenyl)cyclohexyl)acetic acid meglumine Form A suspension-based formulation.
Where a name gives a salt, the structure may show the parent alone.
measured endpoint: bioavailability (%)

compound	recorded number
O=C(O)C[C@H]1CC[C@H](c2ccc(-c3ccc(Nc4nc5ccccc5o4)cn3)cc2)CC1 [meglumine salt]	1.5

These data points were gathered from patent US8987459B2.
